# Assay system: MLE dsRBD1+2 N223A/K224E/K225E/K229E (Drosophila, UniProt P24785 1-264, N223A;K224E;K225E;K229E)
# Sequence (P24785 1-264 N223A/K224E/K225E/K229E): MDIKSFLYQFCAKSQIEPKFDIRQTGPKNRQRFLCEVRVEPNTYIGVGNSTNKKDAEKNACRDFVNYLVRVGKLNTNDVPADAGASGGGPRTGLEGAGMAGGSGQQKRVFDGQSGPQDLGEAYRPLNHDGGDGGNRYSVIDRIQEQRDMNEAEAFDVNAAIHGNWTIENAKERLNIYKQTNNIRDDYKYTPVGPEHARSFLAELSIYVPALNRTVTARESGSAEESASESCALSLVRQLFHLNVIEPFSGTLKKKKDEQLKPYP
# Assay details: fluorescence polarization; FP: 80 nM 3'-FAM RNA stock mixed 1:1 with protein, buffer D (composition not in material), 15 min, 20 C; EMSA: 1200 nM RNA stock mixed 1:1 with protein, buffer
# Condition summary: protein: recombinant; tags: SUMO tag removed by ULP1; label: 3'-FAM; hairpin, 13 nt loop (C135-C147)
pKd: −log10 of the molar value.
Measurement name: pKd

[[record]]
binder = "R2H1 55mer (FAM) (structured_RNA) RNA: GCUUUAGAGAUCGUUUCGAAUCACAUUGAUAAUCGUUCGAAACGUUCUCCGAAGC"
measurement_name = "pKd"
readout_number = 4.22

